Data export: Ki values recorded with Matrix metalloproteinase-9 (Homo sapiens, UniProt P14780).
Sequence (P14780 whole entry): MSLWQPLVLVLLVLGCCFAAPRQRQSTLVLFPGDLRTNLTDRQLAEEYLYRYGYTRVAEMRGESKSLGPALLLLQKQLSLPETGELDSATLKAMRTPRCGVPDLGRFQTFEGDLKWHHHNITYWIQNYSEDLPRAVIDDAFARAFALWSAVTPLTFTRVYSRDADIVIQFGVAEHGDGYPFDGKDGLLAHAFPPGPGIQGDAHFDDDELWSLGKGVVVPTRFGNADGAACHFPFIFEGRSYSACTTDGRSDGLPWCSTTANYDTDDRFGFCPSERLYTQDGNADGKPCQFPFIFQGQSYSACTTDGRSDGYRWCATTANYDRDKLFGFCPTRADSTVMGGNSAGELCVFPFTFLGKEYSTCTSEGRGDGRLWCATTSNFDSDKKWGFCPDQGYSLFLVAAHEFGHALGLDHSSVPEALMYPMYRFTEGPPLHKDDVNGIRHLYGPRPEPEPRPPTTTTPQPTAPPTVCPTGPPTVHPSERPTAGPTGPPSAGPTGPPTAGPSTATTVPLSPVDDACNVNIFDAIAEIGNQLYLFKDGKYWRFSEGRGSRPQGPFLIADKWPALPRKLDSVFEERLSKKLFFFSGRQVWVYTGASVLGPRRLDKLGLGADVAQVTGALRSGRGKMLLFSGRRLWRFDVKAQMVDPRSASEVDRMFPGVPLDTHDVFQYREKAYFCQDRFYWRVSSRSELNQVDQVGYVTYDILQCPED
reported.endpoint: Ki (nM)

The cases that follow already have their Ki on record.
structure.smiles: O=C(NO)C1(S(=O)(=O)c2ccc(OCCCc3nnnn3-c3ccc(OC(F)(F)F)cc3)cc2)CCOCC1
Ki (nM): 1700
--
structure.smiles: Cc1ccc(-c2nnnn2CCCOc2ccc(S(=O)(=O)C3(C(=O)NO)CCOCC3)cc2)nc1
Ki (nM): 2400

I: O=C(NO)C1(S(=O)(=O)c2ccc(OCCCn3nnc(-c4ccc(OC(F)(F)F)cc4)n3)cc2)CCOCC1
II: O=C(NO)C1(S(=O)(=O)c2ccc(OCCCn3cnc(-c4ccc(OC(F)(F)F)cc4)c3)cc2)CCOCC1
Request: # min-compare on Ki between I and II Identify your selection by its label.
Response: I
(I: 1200 nM, II: 1800 nM)
